molecular target: Mitogen-activated protein kinase 14 (Homo sapiens); assay: Selectivity interaction (NanoBRET assay (using HEK293T cells)) EUB0001201a MAPK14; assay type: cell-based, HEK-293T
Sequence (Q16539 whole entry): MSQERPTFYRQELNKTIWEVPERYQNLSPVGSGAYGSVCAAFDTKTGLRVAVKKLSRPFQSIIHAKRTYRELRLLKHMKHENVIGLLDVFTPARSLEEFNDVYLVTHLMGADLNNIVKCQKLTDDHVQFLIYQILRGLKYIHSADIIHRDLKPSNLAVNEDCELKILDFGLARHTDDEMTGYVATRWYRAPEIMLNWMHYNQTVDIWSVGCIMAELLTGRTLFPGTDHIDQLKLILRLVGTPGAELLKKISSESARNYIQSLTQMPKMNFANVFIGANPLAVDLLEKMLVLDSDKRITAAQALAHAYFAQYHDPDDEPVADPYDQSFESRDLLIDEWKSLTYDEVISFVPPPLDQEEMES
Metric: IC50 (µM)
Provide only the numeric value, understood in µM.

Form field: reported IC50 of CCc1ccc(-c2ncn(CC3(F)CCN(C)CC3)c2-c2ccnc3[nH]ccc23)nc1
9.9

====

target: hERG (KCNH2) (Homo sapiens, UniProt Q12809); test: Selectivity interaction (Panel of kinases, GPCRs, ion channels and transporters (enzymatic assay)) EUB0000223bCl KCNH2
Metric: XC50 (µM)
State just the number; it will be interpreted in µM.

Consider the molecule COc1cc(C(=O)N2CC[C@@H](O)[C@@H](N)C2)cc2nc(-c3cc4ccccc4n3CC3CC3)n(C)c12 and give its measured XC50.
31.6

====

Target: Alpha-2A adrenergic receptor (Homo sapiens, UniProt P08913)
Sequence (P08913 whole entry): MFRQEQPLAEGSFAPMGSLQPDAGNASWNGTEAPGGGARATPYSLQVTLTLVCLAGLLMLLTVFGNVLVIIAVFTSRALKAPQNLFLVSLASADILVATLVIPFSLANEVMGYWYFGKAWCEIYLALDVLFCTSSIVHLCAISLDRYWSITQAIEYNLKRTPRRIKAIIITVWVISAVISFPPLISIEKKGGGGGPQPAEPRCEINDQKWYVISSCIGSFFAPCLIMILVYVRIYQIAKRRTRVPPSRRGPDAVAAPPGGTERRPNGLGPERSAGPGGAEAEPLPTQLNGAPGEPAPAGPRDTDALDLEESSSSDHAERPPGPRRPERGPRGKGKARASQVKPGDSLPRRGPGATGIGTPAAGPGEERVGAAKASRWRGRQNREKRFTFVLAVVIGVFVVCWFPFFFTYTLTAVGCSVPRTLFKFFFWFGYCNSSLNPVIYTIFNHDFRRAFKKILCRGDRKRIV
Assay: Selectivity interaction (Alpha2A calcium flux assay ) EUB0000877a ADRA2A
Metric: IC50

// IC50 lookup, key: CCC(=O)N1CC[C@H](Nc2ncnc3c2CN(c2cnc(OC)c(C(F)(F)F)c2)CC3)C1
> 30 µM

====

target: L-type calcium channel Cav1.2 (CACNA1C) (Homo sapiens); assay: Selectivity interaction (Panel of kinases, GPCRs, ion channels and transporters (enzymatic assay)) EUB0000266bCl CACNA1C
Sequence (Q13936 whole entry): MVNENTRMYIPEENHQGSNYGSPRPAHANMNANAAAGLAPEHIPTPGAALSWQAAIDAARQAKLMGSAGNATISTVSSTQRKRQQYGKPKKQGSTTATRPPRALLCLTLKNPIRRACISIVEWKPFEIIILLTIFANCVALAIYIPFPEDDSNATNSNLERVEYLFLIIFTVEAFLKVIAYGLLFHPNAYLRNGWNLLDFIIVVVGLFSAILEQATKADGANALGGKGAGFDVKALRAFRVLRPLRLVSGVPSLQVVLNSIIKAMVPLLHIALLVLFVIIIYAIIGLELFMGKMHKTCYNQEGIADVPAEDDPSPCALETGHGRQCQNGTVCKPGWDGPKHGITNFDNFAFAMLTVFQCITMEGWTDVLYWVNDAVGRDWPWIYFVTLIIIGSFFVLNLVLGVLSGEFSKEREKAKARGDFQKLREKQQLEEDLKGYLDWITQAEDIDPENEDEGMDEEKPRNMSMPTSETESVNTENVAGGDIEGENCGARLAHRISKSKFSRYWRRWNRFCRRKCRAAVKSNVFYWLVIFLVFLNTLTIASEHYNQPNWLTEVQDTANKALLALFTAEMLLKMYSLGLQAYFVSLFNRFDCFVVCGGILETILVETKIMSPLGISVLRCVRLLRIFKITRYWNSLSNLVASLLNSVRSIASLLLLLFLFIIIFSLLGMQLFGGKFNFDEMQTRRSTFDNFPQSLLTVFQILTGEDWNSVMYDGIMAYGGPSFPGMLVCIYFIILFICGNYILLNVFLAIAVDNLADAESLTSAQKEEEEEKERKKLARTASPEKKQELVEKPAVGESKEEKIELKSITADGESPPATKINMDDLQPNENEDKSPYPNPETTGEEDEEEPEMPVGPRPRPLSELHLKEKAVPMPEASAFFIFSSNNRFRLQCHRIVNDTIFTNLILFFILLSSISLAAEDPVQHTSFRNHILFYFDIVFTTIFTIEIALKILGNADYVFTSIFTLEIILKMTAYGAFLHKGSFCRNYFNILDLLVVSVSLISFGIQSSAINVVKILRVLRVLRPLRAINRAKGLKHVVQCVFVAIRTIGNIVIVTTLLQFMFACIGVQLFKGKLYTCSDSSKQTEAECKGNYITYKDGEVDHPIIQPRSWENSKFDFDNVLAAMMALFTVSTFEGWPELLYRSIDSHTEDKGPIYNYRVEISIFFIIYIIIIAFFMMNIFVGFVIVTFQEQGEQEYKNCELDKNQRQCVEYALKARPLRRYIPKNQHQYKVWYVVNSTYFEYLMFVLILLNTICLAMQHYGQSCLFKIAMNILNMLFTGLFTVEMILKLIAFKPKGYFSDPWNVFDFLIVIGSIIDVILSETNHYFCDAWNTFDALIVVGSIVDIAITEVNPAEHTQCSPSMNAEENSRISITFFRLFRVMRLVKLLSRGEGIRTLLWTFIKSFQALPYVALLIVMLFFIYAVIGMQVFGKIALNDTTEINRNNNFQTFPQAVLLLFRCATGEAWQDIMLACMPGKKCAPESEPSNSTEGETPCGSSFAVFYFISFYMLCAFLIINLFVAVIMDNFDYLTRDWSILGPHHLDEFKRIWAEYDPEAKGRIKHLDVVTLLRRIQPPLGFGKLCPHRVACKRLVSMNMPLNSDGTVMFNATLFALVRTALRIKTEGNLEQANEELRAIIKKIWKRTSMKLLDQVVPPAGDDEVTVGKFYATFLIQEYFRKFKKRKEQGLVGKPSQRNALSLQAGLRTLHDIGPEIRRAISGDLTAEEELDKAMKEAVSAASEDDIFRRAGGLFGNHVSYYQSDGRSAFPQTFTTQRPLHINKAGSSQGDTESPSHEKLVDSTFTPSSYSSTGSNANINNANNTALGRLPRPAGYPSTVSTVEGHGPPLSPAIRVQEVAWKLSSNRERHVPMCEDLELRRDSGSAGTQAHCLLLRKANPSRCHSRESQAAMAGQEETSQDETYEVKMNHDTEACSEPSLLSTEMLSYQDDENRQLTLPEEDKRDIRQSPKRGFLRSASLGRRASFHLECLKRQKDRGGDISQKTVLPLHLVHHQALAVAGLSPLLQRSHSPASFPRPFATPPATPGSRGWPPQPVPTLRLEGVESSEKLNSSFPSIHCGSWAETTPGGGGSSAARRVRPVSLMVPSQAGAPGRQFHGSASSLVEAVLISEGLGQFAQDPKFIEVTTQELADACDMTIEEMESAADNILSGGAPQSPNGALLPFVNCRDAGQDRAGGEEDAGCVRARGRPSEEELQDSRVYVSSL
Metric: XC50

XC50 for CCn1c(-c2nc3cc(C(=O)N4CCCC(N)C4)ccc3n2C)cc2ccccc21 (stereo unspecified) ?
> 15.8 µM

====

biological target: Sodium-dependent noradrenaline transporter (Homo sapiens); assay: Selectivity interaction (Norepinephrine Transporter assay, human recombinant ) EUB0000877a SLC6A2
Sequence (P23975 whole entry): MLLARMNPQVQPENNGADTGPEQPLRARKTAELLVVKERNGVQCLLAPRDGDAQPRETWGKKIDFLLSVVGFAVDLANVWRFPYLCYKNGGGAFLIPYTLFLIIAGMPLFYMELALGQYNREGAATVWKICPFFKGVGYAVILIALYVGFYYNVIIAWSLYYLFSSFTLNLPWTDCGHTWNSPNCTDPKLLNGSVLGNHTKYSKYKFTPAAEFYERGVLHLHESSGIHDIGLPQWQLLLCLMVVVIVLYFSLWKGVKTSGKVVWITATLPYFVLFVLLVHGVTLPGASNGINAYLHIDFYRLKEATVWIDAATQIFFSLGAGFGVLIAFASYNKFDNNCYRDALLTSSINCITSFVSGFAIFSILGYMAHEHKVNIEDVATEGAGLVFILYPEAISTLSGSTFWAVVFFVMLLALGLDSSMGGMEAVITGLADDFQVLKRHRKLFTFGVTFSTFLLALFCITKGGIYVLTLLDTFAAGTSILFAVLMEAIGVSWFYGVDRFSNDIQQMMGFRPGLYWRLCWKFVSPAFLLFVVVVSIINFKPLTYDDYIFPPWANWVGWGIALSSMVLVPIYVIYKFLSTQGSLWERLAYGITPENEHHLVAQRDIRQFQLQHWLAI
pIC50: −log10 of the molar value.
Metric: pIC50

Tell me the measured pIC50 of CCC(=O)N1CC[C@H](Nc2ncnc3c2CN(c2cnc(OC)c(C(F)(F)F)c2)CC3)C1 , please.
< 4.52

====

molecular target: UniProt:Q99873; assay: Selectivity interaction (Scintillation proximity assay) EUB0000261b PRMT1
Sequence (Q99873 whole entry): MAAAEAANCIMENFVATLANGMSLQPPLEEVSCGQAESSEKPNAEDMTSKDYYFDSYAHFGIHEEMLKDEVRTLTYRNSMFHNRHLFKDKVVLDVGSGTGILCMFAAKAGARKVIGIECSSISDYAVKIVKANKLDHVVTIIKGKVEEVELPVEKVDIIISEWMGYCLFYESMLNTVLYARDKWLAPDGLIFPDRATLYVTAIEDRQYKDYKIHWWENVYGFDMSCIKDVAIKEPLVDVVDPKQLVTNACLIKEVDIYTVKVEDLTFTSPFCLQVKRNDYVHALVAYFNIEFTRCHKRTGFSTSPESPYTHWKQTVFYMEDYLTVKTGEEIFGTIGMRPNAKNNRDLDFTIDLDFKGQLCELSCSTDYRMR
Metric: IC50

# lookup: IC50 of CC(C)Oc1ccc(-c2c[nH]cc2CN(C)CCO)cc1
> 20 µM

====

molecular target: Nav1.5 (SCN5A) (Homo sapiens, UniProt Q14524); assay: Selectivity interaction (Panel of kinases, GPCRs, ion channels and transporters (enzymatic assay)) EUB0000223bCl SCN5A
Metric: XC50 (µM)
Value expressed in µM; do not type the unit.

GET /values?readout=XC50&system=Nav1.5 (SCN5A) (Homo sapiens, UniProt Q14524)&item= COc1cc(C(=O)N2CC[C@@H](O)[C@@H](N)C2)cc2nc(-c3cc4ccccc4n3CC3CC3)n(C)c12
39.8

====

target: Calcium/calmodulin-dependent protein kinase type II subunit alpha (Homo sapiens, UniProt Q9UQM7); assay: Selectivity interaction (Upstate Kinase Profiler service (Millipore, enzymatic assay)) EUB0000056c CAMK2A
Sequence (Q9UQM7 whole entry): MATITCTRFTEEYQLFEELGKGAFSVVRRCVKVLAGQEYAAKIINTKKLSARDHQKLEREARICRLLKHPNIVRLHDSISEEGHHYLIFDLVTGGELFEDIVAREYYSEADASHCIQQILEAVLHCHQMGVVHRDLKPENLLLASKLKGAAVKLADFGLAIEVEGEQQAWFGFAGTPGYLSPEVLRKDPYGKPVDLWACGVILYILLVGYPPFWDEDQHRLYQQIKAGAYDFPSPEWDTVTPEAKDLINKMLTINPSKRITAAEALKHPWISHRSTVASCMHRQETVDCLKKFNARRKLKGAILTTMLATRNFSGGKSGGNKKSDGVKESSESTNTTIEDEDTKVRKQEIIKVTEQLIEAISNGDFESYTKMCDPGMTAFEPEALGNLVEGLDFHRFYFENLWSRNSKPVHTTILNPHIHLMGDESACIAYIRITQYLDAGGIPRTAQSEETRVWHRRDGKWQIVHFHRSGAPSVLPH
Metric: pIC50
Worth noting: pIC50 values are minus log10 of concentrations stated in mol/L.

Which measured pIC50 value corresponds to Cc1ccc(-c2ccc3c(ccc4sc5c(c43)NC[C@@H](C)NC5=O)n2)cn1 ?
7.15

====

biological target: Tyrosine-protein kinase ABL1 (Homo sapiens, UniProt P00519); test: Selectivity interaction (Kinase panel (enzymatic assay)) EUB0000595a ABL1
Metric: IC50

Enter reported IC50 observed with Tyrosine-protein kinase ABL1 (Homo sapiens, UniProt P00519) for COCC(=O)NC/C=C/c1ccc2ncnc(Nc3ccc(Oc4ccc(C)nc4)c(C)c3)c2c1
> 10 µM

====

molecular target: Serine/threonine-protein kinase 17B (Homo sapiens); experiment: Selectivity interaction (KinomeScan (competition-binding assay, DiscoverX)) EUB0001547a STK17B
Metric: pKd
API: returns pKd as number; meaning -log10 of concentration in mol/L.

Given the entry N[C@@H]1CCCN(c2c(/C=C3\SC(=O)NC3=O)cccc2-c2ccccc2)C1 , report its measured pKd.
6.03

====

molecular target: Aurora kinase B (Homo sapiens, UniProt Q96GD4); assay: Selectivity interaction (Enyzmatic assay) EUB0000601a AURKB
Sequence (Q96GD4 whole entry): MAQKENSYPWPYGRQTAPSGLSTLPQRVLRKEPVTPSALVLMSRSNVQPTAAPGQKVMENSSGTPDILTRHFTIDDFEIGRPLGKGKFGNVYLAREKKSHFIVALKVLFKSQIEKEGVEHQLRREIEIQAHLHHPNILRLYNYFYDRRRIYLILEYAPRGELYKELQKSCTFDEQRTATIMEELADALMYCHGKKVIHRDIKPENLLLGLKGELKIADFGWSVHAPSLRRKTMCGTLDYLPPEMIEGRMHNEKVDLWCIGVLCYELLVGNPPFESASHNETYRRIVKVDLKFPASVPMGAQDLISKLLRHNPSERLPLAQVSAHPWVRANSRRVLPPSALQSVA
pIC50: −log10 of the molar value.
Metric: pIC50

Tell me reported pIC50 for CCc1cc(Nc2nccc(-c3c(-c4ccc(OC)c(C(=O)Nc5c(F)cccc5F)c4)nc4ccccn34)n2)c(OC)cc1N1CCC(N2CCN(S(C)(=O)=O)CC2)CC1 , tested with Aurora kinase B (Homo sapiens, UniProt Q96GD4).
< 5.40

====

target: Dual specificity protein kinase CLK1 (Homo sapiens, UniProt P49759); assay: Selectivity interaction (Enzymatic assay) EUB0001550a CLK1
Sequence (P49759 whole entry): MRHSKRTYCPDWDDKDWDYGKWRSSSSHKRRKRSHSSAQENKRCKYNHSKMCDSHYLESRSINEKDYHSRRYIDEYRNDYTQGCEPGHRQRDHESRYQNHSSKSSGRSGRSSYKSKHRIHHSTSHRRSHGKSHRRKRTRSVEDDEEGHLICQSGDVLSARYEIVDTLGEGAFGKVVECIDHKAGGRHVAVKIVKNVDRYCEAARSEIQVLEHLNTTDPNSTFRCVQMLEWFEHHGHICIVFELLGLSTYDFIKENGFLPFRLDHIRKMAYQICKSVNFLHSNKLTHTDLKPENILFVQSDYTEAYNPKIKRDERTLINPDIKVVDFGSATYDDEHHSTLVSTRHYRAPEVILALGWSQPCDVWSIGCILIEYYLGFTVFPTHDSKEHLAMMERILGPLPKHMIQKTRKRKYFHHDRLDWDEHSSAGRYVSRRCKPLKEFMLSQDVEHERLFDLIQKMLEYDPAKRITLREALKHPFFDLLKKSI
Metric: IC50 (nM)
Give the value, in units of nM, as a plain number.

# returns recorded IC50 (system: Dual specificity protein kinase CLK1 (Homo sapiens, UniProt P49759)) for CN(C)CC#Cc1ccc2[nH]c3c(c2c1)-c1nc(N)ncc1CCC3
420

====

molecular target: Tyrosine-protein kinase Lck (Homo sapiens)
Metric: IC50

What reported IC50 corresponds to CCc1cccc(CC)c1NC(=O)c1nn(C)c2c1CCc1cnc(Nc3ccc(C(=O)NC4CCN(C)CC4)cc3OC(F)(F)F)nc1-2 on Tyrosine-protein kinase Lck (Homo sapiens)?
> 10 µM

====

Molecular target: Serine/threonine-protein kinase ICK (Homo sapiens, UniProt Q9UPZ9)
Sequence (Q9UPZ9 whole entry): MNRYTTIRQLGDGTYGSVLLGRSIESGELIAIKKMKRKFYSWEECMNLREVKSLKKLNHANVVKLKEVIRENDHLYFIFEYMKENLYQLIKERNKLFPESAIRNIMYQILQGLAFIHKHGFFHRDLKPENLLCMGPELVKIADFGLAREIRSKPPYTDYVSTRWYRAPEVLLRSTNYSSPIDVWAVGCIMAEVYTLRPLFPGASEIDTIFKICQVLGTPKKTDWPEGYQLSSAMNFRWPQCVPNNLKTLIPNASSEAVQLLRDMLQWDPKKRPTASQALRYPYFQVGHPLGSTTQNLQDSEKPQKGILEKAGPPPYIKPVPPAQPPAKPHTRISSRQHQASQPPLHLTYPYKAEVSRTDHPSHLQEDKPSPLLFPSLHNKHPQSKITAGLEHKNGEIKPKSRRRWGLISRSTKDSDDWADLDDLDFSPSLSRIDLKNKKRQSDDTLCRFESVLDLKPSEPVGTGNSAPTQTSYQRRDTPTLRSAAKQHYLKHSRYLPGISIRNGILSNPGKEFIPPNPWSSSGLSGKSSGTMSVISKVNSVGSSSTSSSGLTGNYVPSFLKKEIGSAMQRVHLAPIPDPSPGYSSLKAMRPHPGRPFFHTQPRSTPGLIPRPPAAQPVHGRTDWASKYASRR
Experiment: Selectivity interaction (Kinase panel (Invitrogen, enzymatic assay)) EUB0000162b ICK
Metric: pIC50
Recall that pIC50 is obtained by taking minus log10 of the concentration measured in molar.

Query the reported pIC50 for Serine/threonine-protein kinase ICK (Homo sapiens, UniProt Q9UPZ9); item: CN(C)C(=O)Cn1cc(-c2ccc(-c3cncc4ccccc34)cc2)cn1
5.62

====

target: Aurora kinase B (Homo sapiens, UniProt Q96GD4); assay: Selectivity interaction (Enzymatic assay) EUB0001199aCl AURKB
Metric: pIC50
Please report pIC50 as the negative decimal logarithm of the molar concentration, giving only the number.

Please provide the recorded pIC50 for CN1Cc2nccc(-c3cn(C)nc3-c3ccc(F)cc3)c2C1=O , tested on Aurora kinase B (Homo sapiens, UniProt Q96GD4).
4.99

====

Target: Aurora kinase A (Homo sapiens, UniProt O14965)
Sequence (O14965 whole entry): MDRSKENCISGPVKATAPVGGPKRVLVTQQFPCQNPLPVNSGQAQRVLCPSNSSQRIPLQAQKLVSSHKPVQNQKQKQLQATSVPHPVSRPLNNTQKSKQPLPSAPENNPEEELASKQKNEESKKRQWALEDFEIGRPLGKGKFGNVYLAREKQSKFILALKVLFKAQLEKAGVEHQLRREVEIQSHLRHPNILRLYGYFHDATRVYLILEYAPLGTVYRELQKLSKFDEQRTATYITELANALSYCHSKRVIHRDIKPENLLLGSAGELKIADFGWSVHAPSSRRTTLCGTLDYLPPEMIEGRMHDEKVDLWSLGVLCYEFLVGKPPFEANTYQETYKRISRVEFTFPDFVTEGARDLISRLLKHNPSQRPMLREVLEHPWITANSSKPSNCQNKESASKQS
Test: Selectivity interaction (Kinase panel (33PanQinase(R) Activity Assay)) EUB0000877a STK6
pIC50: −log10 of the molar value.
Metric: pIC50

Hi! What's the reported pIC50 for CCC(=O)N1CC[C@H](Nc2ncnc3c2CN(c2cnc(OC)c(C(F)(F)F)c2)CC3)C1 on Aurora kinase A (Homo sapiens, UniProt O14965)?
< 5.00
